Tm: recorded values
- Assay Summary: melting temperature; fluorescence melt of hairpins on a sequencing array, two-state fit, raised by 9.35 °C to match UV melts
- Recorded Conditions: sodium 0.088 M

Residues	Tm (°C)
GGGCAGCGAAAGCTTCCC (((.(((....))).)))	55.8
GATCTTGGCAAGATC ((((((...))))))	48.2
GCGTGGGGAAACTCGCGC (((.(.(....).).)))	54
GCGCTGCGAAAGCGTCGC (((..((....))..)))	59.7
GCGGATGGAAACGTCTGC ((.((.(....).)).))	44.3
GCAGACGAAAGTCAATGC ((((((....)))..)))	43.9
GATCTTGTGTAAGATC ((((((....))))))	43.6
GAATTAGGAAACTAATTC (((((((....)))))))	46.9
GGGAACGAAAGTTACCCC ((((((....)))..)))	53.4
GATTCGGGAAACCGGATC (((.(((....))).)))	49.3
GATCGTTATACGATC ((((((...))))))	57.9
GCAAGTGGAAACACTTAC (.(((((....))))).)	34.6

* * *

- Assay Summary: folding enthalpy; higher = less favourable; fluorescence melt of hairpins on a sequencing array, two-state fit
- Recorded Conditions: sodium 0.088 M

Residues	folding enthalpy
GCGATAGGAAACTATTGC ((.((((....)))).))	-38.8 kcal/mol
CGTCCGGAAACGGTAACG ((((((....)))..)))	-25.1 kcal/mol
CGTGTTCGGAAACGAACG (((..(((....))))))	-8.25 kcal/mol
GACGTGCGAAAGCAGGTC (((.(((....))).)))	-36.2 kcal/mol
GCAATCCCGAAAGGGTGC (((..(((....))))))	-19.1 kcal/mol
GTGGAGTCGAAAGACCAC (((..(((....))))))	-20.6 kcal/mol
GTCGGGCGAAAGCCGAC (((.(((....))))))	-23 kcal/mol
GGATCAGGAAACTGATCC (((((((....)))))))	-44.2 kcal/mol
GTGGGACGAAAGTCCAC (((.(((....))))))	-13.2 kcal/mol
CGTTCGGAAACGAAAACG ((((((....)))..)))	-24.8 kcal/mol
GGTTCCGAAAGGAGCACC ((((((....)))..)))	-13.8 kcal/mol
CGTACGGAAACGTTTACG ((((((....)))..)))	-16 kcal/mol

* * *

- Assay Summary: melting temperature; fluorescence melt of hairpins on a sequencing array, two-state fit, raised by 9.35 °C to match UV melts
- Recorded Conditions: sodium 0.088 M
Think of 40 °C as a floor: if Tm stands on it or above, it is fulfilled; beneath it, not fulfilled.

Residues	Class Name
GAACTCCGAAAGGATTTC (((.(((....))).)))	not fulfilled
GATCCCTGGGGGATC ((((((...))))))	fulfilled
GCGGCGCGAAAGCGATGC ((..(((....)))..))	fulfilled
GAGGAACGAAAGTTGCTC (((.(((....))).)))	fulfilled
GATCGGACTCCCGATC ((((((....))))))	fulfilled
GCGAAATCGAAAGATCGC (((..(((....))))))	fulfilled
GCCCAGCGAAAGCTACGC ((..(((....)))..))	not fulfilled
GATAAGCGAAAGCTAATC (((.(((....))).)))	fulfilled
GTACACACGAAAGTGTAC (((..(((....))))))	fulfilled
GGCTCCCGAAAGGGCGCC (((.(((....))).)))	fulfilled
GAAGGCCGAAAGGCATTC (((.(((....))).)))	fulfilled
GGTTCTGCGAAAGCAACC (((..(((....))))))	not fulfilled
GATCTTCCCTAAGATC ((((((....))))))	fulfilled
GTTACGGGAAACCGTGAC ((.((((....)))).))	fulfilled
GACTACCGAAAGGTCGTC (((.(((....))).)))	fulfilled
GCATCGCGAAAGCTGTGC (((..((....))..)))	fulfilled
GTGTGCGAAAGCAGGCAC ((((((....)))..)))	fulfilled
GTTGATGGAAACATCGAC ((.((((....)))).))	fulfilled
GCGTCGGGAAACCGGTGC ((..(((....)))..))	fulfilled
GCCCAGCGAAAGCTGCGC ((.((((....)))).))	fulfilled
GTAGAGGGAAACCTTTAC (((.(((....))).)))	not fulfilled
GATCTACAATTAGATC ((((((....))))))	not fulfilled
GCAGTGCGAAAGCCATGC (((..((....))..)))	fulfilled
GGAAGCACGAAAGTGTCC (((..(((....))))))	not fulfilled
GATCTGACCACAGATC ((((((....))))))	fulfilled
GTATAACGAAAGTTCTAC (((.(((....))).)))	not fulfilled
GGGAGCGAAAGCTTACCC ((((((....)))..)))	fulfilled
GATCGCAGGTGCGATC ((((((....))))))	fulfilled
GTACCTCGAAAGAGTAC (((.(((....))))))	fulfilled
GCTGGGGAAACCCAGC ((((((....))))))	fulfilled
GGGCGGGGAAACTCGCCC (((((.(....).)))))	fulfilled
GAAGACGGAAACATCTTC (((((.(....).)))))	not fulfilled
GCAAGCGAAAGCTATTGC ((((((....)))..)))	fulfilled
GCAAAGCGAAAGCCTCGC ((.(.((....)).).))	not fulfilled
GGTTAGCGAAAGCTCACC (((.(((....))).)))	fulfilled
GACAACGGAAACGTCGTC (((.(((....))).)))	fulfilled
GCGAAGCGAAAGCAACGC (((..((....))..)))	fulfilled
GGTCAGGGAAACCTGACC (((((((....)))))))	fulfilled
GATCTATGGGTAGATC ((((((....))))))	fulfilled
GCAATAGGAAACTATTGC (((((((....)))))))	fulfilled
GTGGACGAAAGTCTTCAC ((((((....)))..)))	not fulfilled
GCTTTACGAAAGTACAGC (((.(((....))).)))	fulfilled
GGTGGCGAAAGCCAACC ((((((....))).)))	fulfilled
GTGTCCGAAAGGAGCAC ((((((....))).)))	fulfilled
GCAAGCGAAAGCTTGTGC ((((((....)))..)))	fulfilled
GTAATCCCGAAAGGGTAC (((..(((....))))))	not fulfilled
GGCTGGGGAAACCCGGTC (.(.(((....))).).)	fulfilled
GAATTGCGAAAGCAGTTC (((.(((....))).)))	fulfilled
